Readings of growth for the listed compounds
- System: SN12C renal
- Experimental Protocol: NCI-60 one-dose screen, 48 h (100 = growth as untreated, 0 = no growth, -100 = all killed)
- Run Parameters: 10 µM
- Experimental: Growth inhibition of the SN12C human tumor cell line is measured as a screen for anti-cancer activity. Cells are grown in 96 well plates and exposed to the test compound for 48 hours. Compounds are tested at a single concentration, which is 10^-5 M for most compounds. The reported endpoint is percent growth (GI% or GIPRCNT), where numbers from 0 - 100% represent growth inhibition, and numbers from -100% - 0 represent cell death. For example, a value of 40 represents 60% growth inhibition. […]
This is part of a sample that, as a whole, favours compounds with a hit. Of some 83,000 tested, about 20% had one in any assay. The source made the active and inactive calls. Rule for the calls: active = growth percent below 10; inactive = the rest.

Compound: O=C([Se]C1C=CCCC1)c1ccc(C(=O)[Se]C2C=CCCC2)s1 (centres undefined)
growth: -81.8% (active)
//
Compound: COC(=O)c1ccc(-n2cc(CCCN(CCNc3ccnc4cc(Cl)ccc34)C(=O)CCC(=O)O[C@@H]3O[C@@H]4OC5(C)CC[C@H]6[C@H](C)CC[C@@H]([C@H]3C)[C@@]46OO5)nn2)cc1
growth: 44% (inactive)
//
Compound: C=CC[Se]C(=O)c1ccc(C(=O)[Se]CC=C)s1
growth: -55.8% (active)
//
Compound: CC(=O)Oc1ccccc1C(=O)[Se]C(=NC(C)C)NC(C)C
growth: -78.7% (active)

###

- Tested on: UACC-257 melanoma
- Experimental Protocol: NCI-60 one-dose screen, 48 h
- Run Parameters: 10 µM
- Method: Cells are grown in 96 well plates and exposed to the test compound for 48 hours. Compounds are tested at a single concentration, which is 10^-5 M for most compounds. The reported endpoint is percent growth (GI% or GIPRCNT), where numbers from 0 - 100% represent growth inhibition, and numbers from -100% - 0 represent cell death. For example, a value of 40 represents 60% growth inhibition. A value of 0 means no net growth occurred over the course of the experiment. […]
The panel holds about 83,000 compounds, 20% with a hit somewhere; the sample as a whole holds those more often. Active and inactive are the calls of the source. How the source made its calls: active means growth percent below 10; inactive means the rest.
Possible outcomes: yes for active, no for inactive

Molecule: CC1=C(CCC=O)C2=C(C)C3(CC3)[C@@](C)(O)C(=O)C2=C1
Class Name: yes
--
Molecule: CCOP(=O)(OCC)C(NC(C)=O)C(=O)SCCN (stereo unspecified)
Class Name: no
--
Molecule: CCOC(=O)C1=C(Nc2ccccc2)C(=O)OC12C(=O)Nc1ccccc12 (stereo unspecified)
Class Name: no
--
Molecule: O=C(/C=C/c1ccc(Cl)cc1)c1nc2ccccc2n1Cc1ccc(Br)cc1
Class Name: no
--
Molecule: COc1ccc(/C=C/C(=O)c2nc3ccccc3n2Cc2ccc(Br)cc2)cc1
Class Name: no
--
Molecule: COCCOCCOCCOc1ccc(-n2cc(CCCN(CCNc3ccnc4cc(Cl)ccc34)C(=O)CCC(=O)O[C@@H]3O[C@@H]4OC5(C)CC[C@H]6[C@H](C)CC[C@@H]([C@H]3C)[C@@]46OO5)nn2)cc1
Class Name: no
--
Molecule: COC(=O)C[C@](O)(CCCC(C)C)C(=O)O[C@H]1C(OC)=C[C@@]23CCCN2CCc2cc4c(cc2[C@@H]13)OCO4
Class Name: yes
--
Molecule: COC(=O)CCn1c(-c2ccc(-n3cc(-c4ccc(O[C@H]5O[C@@H]6OC7(C)CC[C@H]8[C@H](C)CC[C@@H]([C@H]5C)[C@@]68OO7)cc4)nn3)cc2)nc2ccccc21
Class Name: no
--
Molecule: COc1cc(OC)c(S(=O)(=O)N(CCCl)CCCl)cc1C(=O)/C=C/c1cc(OC)c(OC)c(OC)c1
Class Name: yes
--
Molecule: O=C(/C=C/c1ccco1)c1nc2ccccc2n1Cc1ccc(F)cc1
Class Name: no
--
Molecule: O=C(/C=C/c1ccco1)c1nc2ccccc2n1Cc1ccc(Br)cc1
Class Name: no
--
Molecule: O=C(/C=C/c1ccccc1Cl)c1nc2ccccc2n1Cc1ccc(F)cc1
Class Name: yes
--
Molecule: O=C(/C=C/c1ccc(F)cc1)c1nc2ccccc2n1Cc1ccc(Br)cc1
Class Name: yes
--
Molecule: C#CC[Se]C(=O)c1ccc2n[se]nc2c1
Class Name: no
--
Molecule: CC12CCC3(CCC(=O)NCCCNc4ccnc5cc(Cl)ccc45)[C@@](C)(OO[C@]3(C)O1)O2
Class Name: no
--
Molecule: O=C(NC([Se])=NC1CCCCC1)c1ccc2c(c1)OCO2
Class Name: no
--
Molecule: CC[C@]12C=CCN3CC[C@@]4(c5ccc(OC)cc5N(C)[C@H]4[C@@](O)(C(=O)OC)[C@@H]1OC(=O)CCC[P+](C1CCCCC1)(C1CCCCC1)C1CCCCC1)[C@@H]32
Class Name: yes
--
Molecule: CC(C)C[C@H](NC(=O)CNC(=O)C[C@H]1O[C@@H]2OC3(C)CC[C@H]4[C@H](C)CC[C@@H]([C@H]1C)[C@@]24OO3)B(O)O
Class Name: yes
--
Molecule: CCOP(=O)(CC(F)(F)C(F)(F)F)OCC
Class Name: yes
--
Molecule: Cc1ccc2[nH]c(=S)n(-c3ccc(F)cc3)c(=O)c2c1
Class Name: no
--
Molecule: COc1cc(OC)c(S(=O)(=O)N(CCCl)CCCl)cc1C(=O)/C=C/c1ccc(C)cc1
Class Name: no
--
Molecule: CN(C)CCc1cn(C2CCC2)c2cccc(O)c12
Class Name: no
--
Molecule: O=C(/C=C/c1ccc(Cl)cc1Cl)c1nc2ccccc2n1Cc1ccc(F)cc1
Class Name: no
--
Molecule: CC1=C(CCC=NNC(N)=O)C2=C(C)C3(CC3)[C@@](C)(O)C(=O)C2=C1
Class Name: yes
--
Molecule: COC(=O)c1ccc(-n2cc(CCCN(CCNc3ccnc4cc(Cl)ccc34)C(=O)CCC(=O)O[C@@H]3O[C@@H]4OC5(C)CC[C@H]6[C@H](C)CC[C@@H]([C@H]3C)[C@@]46OO5)nn2)cc1
Class Name: no
--
Molecule: C#CC[Se]C(=O)c1ccc(C(=O)[Se]CC#C)s1
Class Name: no
--
Molecule: CC1=C(C=O)C2=C(C)C3(CC3)[C@@](C)(O)C(=O)C2=C1
Class Name: no
--
Molecule: O=C(/C=C/c1cccc(Br)c1)c1nc2ccccc2n1Cc1ccc(F)cc1
Class Name: no
--
Molecule: O=C(/C=C/c1cccc(Br)c1)c1nc2ccccc2n1Cc1ccc(Br)cc1
Class Name: yes
--
Molecule: COC(=O)C[C@](O)(CCC(C)C)C(=O)O[C@H]1C(OC)=C[C@@]23CCCN2CCc2cc4c(cc2[C@@H]13)OCO4
Class Name: yes
--
Molecule: N#C[Se]CC(=O)Nc1cccc(C(F)(F)F)c1
Class Name: yes
--
Molecule: COc1cc2cc(C(=O)N3C[C@@H](CCl)c4c3cc(OC(=O)N3CCN(C(=O)CCC(=O)N5CCN(C)CC5)[C@@H]5CSSC[C@@H]53)c3ccccc43)[nH]c2c(OC)c1OC
Class Name: yes
--
Molecule: COc1ccc(OC)c(/C=C/C(=O)c2nc3ccccc3n2Cc2ccc(F)cc2)c1
Class Name: no
--
Molecule: C[C@H]1[C@H](OC(=O)CCC(=O)N(CCCc2cn(-c3ccc([N+](=O)[O-])cc3)nn2)CCNc2ccnc3cc(Cl)ccc23)O[C@@H]2OC3(C)CC[C@H]4[C@H](C)CC[C@@H]1[C@@]24OO3
Class Name: no
--
Molecule: C=CCN=C([Se])NC(=O)c1ccc2c(c1)OCO2
Class Name: no
--
Molecule: CC(=C\C(=O)Oc1ccc2c3c1OC1C(O)CCC4(O)C(C2)N(CC2CCC2)CCC314)/C=C1\CCCc2ccccc21 (stereo unspecified)
Class Name: yes
